# ASSAY SYSTEM: HDAC6 enzyme (Homo sapiens, UniProt Q9UBN7)
# Construct: HDAC6 enzyme prepared by transducing full length HDAC6 gene into Sf-9 insect cells; GST; purchased SignalChem; host or cells: Sf-9 insect cells
# EXPERIMENT DESCRIPTION: HDAC6 enzyme inhibitory assay (HDAC-Glo I/II Assay kit)
# Assay type: biochemical
# EXPERIMENTAL CONDITIONS: wells without enzyme = 100% inhibition, 10 µM
Listing of recorded HDAC6 inhibitory rate (%) (10 μM) by entry.
The response must be a number in % with no trailing unit.

compound="O=C1c2cc(-c3nnc(C(F)F)o3)ccc2CN1[C@H](c1ncccn1)[C@@H](O)c1cccc(F)c1 (single isomer, unassigned)" recorded_measurement=100
compound="O=C1c2cc(-c3nnc(C(F)F)o3)ccc2CN1[C@H](c1ccccn1)[C@@H](O)c1cccc(Cl)n1 (single isomer, unassigned)" recorded_measurement=100

Exam item: If you can, please state the reported HDAC6 inhibitory rate (%) (10 μM) value of O=C1c2cc(-c3nnc(C(F)F)o3)ccc2CN1[C@H](c1cccc(F)n1)[C@@H](O)c1ccccn1 (single isomer, unassigned) .
Marked response: 100

Exam item: If you can, please state the reported HDAC6 inhibitory rate (%) (10 μM) value of O=C1c2cc(-c3nnc(C(F)F)o3)ccc2CN1[C@H](c1ccccn1)[C@@H](O)c1ccc(F)cc1 (single isomer, unassigned) .
Marked response: 100

Exam item: If you can, please state the reported HDAC6 inhibitory rate (%) (10 μM) value of O=C1c2cc(-c3nnc(C(F)F)o3)ccc2CN1[C@H](C1CC1)[C@@H](O)c1ncccn1 (single isomer, unassigned) .
Marked response: 96

Exam item: If you can, please state the reported HDAC6 inhibitory rate (%) (10 μM) value of O=C1c2cc(-c3nnc(C(F)F)o3)ccc2CN1[C@H](c1ccccc1)[C@@H](O)c1ccccn1 (single isomer, unassigned) .
Marked response: 100

* * *

# ASSAY SYSTEM: HDAC6 enzyme (Homo sapiens)
# Construct: HDAC6 enzyme prepared by transducing full length HDAC6 gene into Sf-9 insect cells; GST; purchased SignalChem; host or cells: Sf-9 insect cells
# Sequence (Q9UBN7 1-1215): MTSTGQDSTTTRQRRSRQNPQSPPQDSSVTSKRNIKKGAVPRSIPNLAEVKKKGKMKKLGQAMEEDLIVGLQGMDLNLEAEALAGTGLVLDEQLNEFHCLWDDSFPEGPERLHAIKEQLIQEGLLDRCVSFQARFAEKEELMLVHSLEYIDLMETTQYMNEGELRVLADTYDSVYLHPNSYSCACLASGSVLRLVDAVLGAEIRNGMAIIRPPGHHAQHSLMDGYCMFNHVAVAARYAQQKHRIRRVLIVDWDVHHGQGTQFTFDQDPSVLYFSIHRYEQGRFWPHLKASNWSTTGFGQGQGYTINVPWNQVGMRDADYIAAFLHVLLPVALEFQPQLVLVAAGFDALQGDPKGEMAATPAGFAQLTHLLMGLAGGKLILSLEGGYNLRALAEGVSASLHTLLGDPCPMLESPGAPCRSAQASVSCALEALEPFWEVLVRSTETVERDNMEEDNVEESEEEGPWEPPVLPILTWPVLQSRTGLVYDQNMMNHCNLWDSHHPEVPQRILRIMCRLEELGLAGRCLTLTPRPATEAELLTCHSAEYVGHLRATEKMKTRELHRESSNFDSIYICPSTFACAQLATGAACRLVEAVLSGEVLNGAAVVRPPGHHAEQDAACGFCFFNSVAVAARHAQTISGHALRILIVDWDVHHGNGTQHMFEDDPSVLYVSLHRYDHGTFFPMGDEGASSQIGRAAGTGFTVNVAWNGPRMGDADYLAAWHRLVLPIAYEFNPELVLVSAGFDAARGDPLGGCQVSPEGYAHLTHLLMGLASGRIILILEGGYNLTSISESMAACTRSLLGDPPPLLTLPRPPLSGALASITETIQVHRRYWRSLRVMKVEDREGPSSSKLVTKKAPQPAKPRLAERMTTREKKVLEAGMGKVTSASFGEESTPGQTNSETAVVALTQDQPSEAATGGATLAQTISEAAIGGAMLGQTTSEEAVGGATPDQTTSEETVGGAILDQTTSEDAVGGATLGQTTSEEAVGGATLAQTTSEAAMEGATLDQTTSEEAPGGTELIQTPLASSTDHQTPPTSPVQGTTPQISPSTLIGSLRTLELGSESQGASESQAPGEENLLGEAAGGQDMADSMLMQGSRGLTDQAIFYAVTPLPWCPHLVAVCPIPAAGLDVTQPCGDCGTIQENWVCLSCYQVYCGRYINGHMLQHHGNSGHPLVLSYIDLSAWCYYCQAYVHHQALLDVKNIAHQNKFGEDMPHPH
# EXPERIMENT DESCRIPTION: HDAC6 enzyme inhibitory assay (HDAC-Glo I/II Assay kit)
# Assay type: biochemical
# EXPERIMENTAL CONDITIONS: wells without enzyme = 100% inhibition
QUANTITY MEASURED: HDAC6 inhibitory rate (%) (10 μM)
The response must be a number in % with no trailing unit.

// worked examples, HDAC6 inhibitory rate (%) (10 μM) included
compound="O=C1c2cc(-c3nnc(C(F)F)o3)ccc2CN1[C@H](c1ccc(F)cc1)[C@@H](O)c1ccccc1 (single isomer, unassigned)" unit_spec=% recorded_measurement=100
compound="O=C1c2cc(-c3nnc(C(F)F)o3)ccc2CN1[C@H](c1ccc(F)cc1)[C@@H](O)c1ccc(F)nc1 (single isomer, unassigned)" unit_spec=% recorded_measurement=99
compound="O=C1c2cc(-c3nnc(C(F)F)o3)ccc2CN1[C@H](c1ccc(F)c(F)c1)[C@@H](O)c1ccccn1 (single isomer, unassigned)" unit_spec=% recorded_measurement=99
compound="O=C1c2cc(-c3nnc(C(F)F)o3)ccc2CN1[C@H](c1cccnn1)[C@@H](O)c1ccc(F)c(F)c1 (single isomer, unassigned)" unit_spec=% recorded_measurement=100
compound="O=C1c2cc(-c3nnc(C(F)F)o3)ccc2CN1[C@H](c1cnccn1)[C@@H](O)c1ccc(F)cc1 (single isomer, unassigned)" unit_spec=% recorded_measurement=100
compound="O=C1c2cc(-c3nnc(C(F)F)o3)ccc2CN1[C@H](c1cnccn1)[C@@H](O)c1cccc(Cl)c1 (single isomer, unassigned)" unit_spec=% recorded_measurement=100
compound="O=C1c2cc(-c3nnc(C(F)F)o3)ccc2CN1[C@H](c1ccccn1)[C@@H](O)c1cccc(C(F)(F)F)n1 (single isomer, unassigned)" unit_spec=% recorded_measurement=101
compound="O=C1c2cc(-c3nnc(C(F)F)o3)ccc2CN1[C@H](C1CCOCC1)[C@@H](O)c1cccc(Cl)c1 (single isomer, unassigned)" unit_spec=% recorded_measurement=101

Exam item: If you can, please state the reported HDAC6 inhibitory rate (%) (10 μM) value of O=C1c2cc(-c3nnc(C(F)F)o3)ccc2CN1[C@H](c1cccc(F)n1)[C@@H](O)c1cccc(F)c1 (single isomer, unassigned) .
Marked response: 100

Exam item: If you can, please state the reported HDAC6 inhibitory rate (%) (10 μM) value of O=C1c2cc(-c3nnc(C(F)F)o3)ccc2CN1[C@H](c1cnccn1)[C@@H](O)c1cccc(F)c1 (single isomer, unassigned) .
Marked response: 100

Exam item: If you can, please state the reported HDAC6 inhibitory rate (%) (10 μM) value of O=C1c2cc(-c3nnc(C(F)F)o3)ccc2CN1[C@H](c1cnccn1)[C@@H](O)c1ccccc1 (single isomer, unassigned) .
Marked response: 99

Exam item: If you can, please state the reported HDAC6 inhibitory rate (%) (10 μM) value of O=C1c2cc(-c3nnc(C(F)F)o3)ccc2CN1[C@H](c1ccccn1)[C@@H](O)c1cccc(F)c1 (single isomer, unassigned) .
Marked response: 100
